Entries and their CC50 at 72 h
measurement_description: Cytotoxicity against mouse NIH3T3 cells after 72 hrs
Format: cell-based
conditions: read-out: TD50
test_readout: CC50 at 72 h (µg/mL)

Cc1nn[se]c1C(=O)N(C)C = 351
Cc1nn[se]c1C(=O)N1CCCC1 = 214
Cc1nn[se]c1C(=O)N1CCOCC1 = 280
Cc1nn[se]c1C(=O)N1CCCCC1 = 123
Cc1nn[se]c1C(=O)N[C@@H](C)c1ccccc1 = 407
Cc1nn[se]c1C(=O)N(C(C)C)C(C)C = 718
Cc1nn[se]c1C(=O)N[C@H](C)c1ccccc1 = 195
